The reported numbers originate from the supplement of paper PMC10567573.

B1: PTPRD (parent)
chain: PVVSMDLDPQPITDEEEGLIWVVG

Variants of: B1
PROCEDURE_TEXT: protein stability index of a GFP-peptide fusion (GPS, HEK-293T) (PSI 1-6); higher = more stable;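 also: lentivirally expressed fusions sorted by FACS into six bins by GFP to DsRed ratio, PSI derived from sequencing read proportions per bin multiplied by bin number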
TEST_PARAMETERS: c terminus: a fixed tail appended
READOUT_LABEL: protein stability index

Reference set, count: 5
VARIANT_DESCRIPTION	READOUT_LABEL	RESULT
L19A	protein stability index	4.6
P11T	protein stability index	3.77
E16V	protein stability index	1.5
P1E	protein stability index	3.2
D6F	protein stability index	2.36

Would you be so kind as to report protein stability index for each listed record?
1. P1C
2. G24V
3. D14I
4. D6Y
5. M5F

stdout:
3.12
1.7
4.15
2.25
3.48

stdin: State the recorded protein stability index for this entry: V23H
stdout: 4.93
